Measured IC50 of individual entries
- measurement_description: Inhibition of Mycobacterium tuberculosis H37Rv MetAP1c in presence of 50 uM Fe(2+) by Met-AMC substrate hydrolysis assay
observed_property: IC50

[
  {
    "compound_string": "O=C(O)c1ccc(-c2ccccc2Cl)o1",
    "observed_property": "IC50",
    "measured_value": "> 500 µM"
  },
  {
    "compound_string": "Fc1ccc(CSc2nnc[nH]2)cc1",
    "observed_property": "IC50",
    "measured_value": "> 500 µM"
  },
  {
    "compound_string": "Cc1ccc(CSc2nnc(N)[nH]2)cc1",
    "observed_property": "IC50",
    "measured_value": "> 500 µM"
  },
  {
    "compound_string": "Cc1nc(-c2ccc(O)c(O)c2)cs1",
    "observed_property": "IC50",
    "measured_value": "3.6 µM"
  },
  {
    "compound_string": "Nc1nnc(SCc2ccc(F)cc2)[nH]1",
    "observed_property": "IC50",
    "measured_value": "> 500 µM"
  },
  {
    "compound_string": "Nc1nnc(SCc2ccc(Cl)cc2Cl)[nH]1",
    "observed_property": "IC50",
    "measured_value": "40 µM"
  },
  {
    "compound_string": "Cc1ccsc1-c1ccc(O)c(O)c1",
    "observed_property": "IC50",
    "measured_value": "1.4 µM"
  },
  {
    "compound_string": "O=C(O)c1ccc(-c2cc(Cl)ccc2Cl)o1",
    "observed_property": "IC50",
    "measured_value": "> 500 µM"
  }
]
